Molecular target: NP:WT-C-His (nucleoprotein) (Influenza A virus A/Puerto Rico/8/1934 …, UniProt P03466 1-498)
Sequence (P03466 whole entry): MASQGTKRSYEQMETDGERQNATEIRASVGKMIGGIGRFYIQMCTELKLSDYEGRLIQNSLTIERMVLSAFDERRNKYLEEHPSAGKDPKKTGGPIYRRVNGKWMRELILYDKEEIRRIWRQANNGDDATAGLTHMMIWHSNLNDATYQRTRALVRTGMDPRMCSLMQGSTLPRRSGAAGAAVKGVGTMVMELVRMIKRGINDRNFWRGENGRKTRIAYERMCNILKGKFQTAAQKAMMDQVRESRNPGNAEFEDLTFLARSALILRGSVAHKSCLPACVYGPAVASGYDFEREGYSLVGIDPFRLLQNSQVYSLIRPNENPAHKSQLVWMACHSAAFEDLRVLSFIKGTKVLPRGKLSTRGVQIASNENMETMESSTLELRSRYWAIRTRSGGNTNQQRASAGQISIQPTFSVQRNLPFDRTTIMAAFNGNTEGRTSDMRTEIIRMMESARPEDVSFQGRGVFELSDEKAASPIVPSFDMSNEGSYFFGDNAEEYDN
Assay: BLI
EXPERIMENTAL_READOUT: Kd
Express your answer as a number followed by its unit.

Task: Item UUUGUUACACACACACACGCUGUG (ssRNA) [24nt ssRNA] has what recorded Kd?
Output: 2.48 nM
